- test_summary: small molecules captured by biotinylated probe aFGF2 – biochemical, small-molecule microarray, fluorescence 635/667, stem cell growth factor project, primary screen (AID 1067);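 note: measures binding of biotinylated aFGF2 protein to printed compounds on slides; z-score merges feature fluorescence and signal-to-noise across triplicate slides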
- experimental_parameters: higher = more signal
quantity_kind: composite z-score

compound	value_observed
COC(=O)C(CC#Cc1ccc2c(c1)[C@]1(C(=O)N2)[C@H](c2ccccc2OCCO)N2[C@H](c3ccccc3)[C@H](c3ccccc3)OC(=O)[C@H]2[C@@H]1C(=O)N1CCc2cc(OC)c(OC)cc2C1)C(=O)OC	-0.0087
CCOC(=O)C[C@H]1[C@H](OC(=O)c2ccccc2-c2ccccc2)[C@@H](NC(=O)c2ccc3ccccc3c2)c2cc(OCCCO)ccc2N1C(=O)Cc1ccc(OC)cc1	-0.118
O=C(O)[C@H](Cc1ccccc1)n1cc(C2(O)CCCCC2)nn1	-0.103
C=CCC(OC(C)=O)[C@@H]1[C@@H](N(Cc2cccc3ccccc23)C(=O)Cc2ccc(OC)cc2)c2cc(OCCCO)ccc2N1C(=O)c1ccc2ccccc2c1 (stereo partly specified)	-0.052
COc1ccc([Si](C)(C)[C@@H]2[C@@H](CC(=O)N3Cc4ccccc4C[C@H]3CO)O[C@]3(C(=O)N(Cc4cccc(N5CCOC5=O)c4)c4ccccc43)[C@H]2C)cc1	-0.0264
NC(=O)NCC#Cc1ccc2c(c1)[C@]1(C(=O)N2)[C@H](c2ccc(OCCO)cc2)N2[C@H](c3ccccc3)[C@H](c3ccccc3)OC(=O)[C@H]2[C@@H]1C(=O)NC[C@H](O)c1ccccc1	-0.0586

* * *

Documented composite z-score across a set of compounds
- assayed_target: Carbonic anhydrase 2 (Homo sapiens)
- test_summary: compounds binding carbonic anhydrase 2 – biochemical, small-molecule microarray, Alexa647-labelled CAII, profiling panel (AID 1122)
- experimental_parameters: CAII-A647 binding fluorescence, higher = more signal

compound	composite z-score
O=C1N(CCS(=O)(=O)c2ccccc2)c2ccccc2C[C@]12N=C(c1ccc(OCCCO)cc1)O[C@@H]2c1ccccc1	0.584
C=CCOC(=O)[C@H]1[C@@H]2C(=O)O[C@@H](c3ccccc3)[C@@H](c3ccccc3)N2[C@@H](c2ccc(OCCOC(=O)[C@@H]3C[C@@H]4C(=O)N[C@@H](CCCC[N+](C)(C)C)C(=O)N4[C@@H]3c3ccc(O)cc3)cc2)[C@]12C(=O)Nc1ccc(I)cc12	0.572
C=C(CCCC)C(=O)CC[C@H](OC(=O)c1ccccc1-c1ccccc1C(=O)O)c1ccc(OCCO)cc1	0.573
CN1C(=O)C2C(C1=O)C1C=C(c3ccc(CO)cc3)C2C(C2CC2)N1C (stereo unspecified)	0.431
O=C1C2C=CC(C(O)c3ccc([N+](=O)[O-])cc3)N(Nc3ccccc3F)C2C(=O)N1c1ccccc1 (stereo unspecified)	0.703
COc1ccc(C(=O)Nc2ccc(CN3C(=O)[C@@]4(O[C@@H](CCn5cc(CCO)nn5)[C@H]([Si](C)(C)c5ccc(OC)cc5)[C@H]4C)c4ccccc43)cc2)cc1	0.348
C=CCOC(=O)[C@H]1[C@@H]2C(=O)O[C@@H](c3ccccc3)[C@@H](c3ccccc3)N2[C@@H](c2ccc(OCCOC(=O)[C@@H]3C[C@@H]4C(=O)N[C@@H](CCCCNC(C)=O)C(=O)N4[C@@H]3c3cccc(OCCO)c3)cc2)[C@]12C(=O)Nc1ccccc12	0.501
COCCCNC(=O)[C@@]1(Sc2ccc(C)cc2)CC(=O)N(Cc2ccccc2C(F)(F)F)[C@@H]1c1ccc(CO)cc1I	0.175
COCC(=C=CC[C@H](O)c1ccccc1OCCO)C[C@H](O)COCc1ccccc1	0.505
CC1CC/C=C\[C@H]2OC34C=CCN(Cn5nnc6ccccc65)C(=O)[C@H]3N(CCCCCCO)C(=O)[C@@H]4C2C(=O)O1 (stereo partly specified)	0.398
O=C1O[C@@H](c2ccccc2)[C@@H](c2ccccc2)N2[C@@H](c3ccc(OCCO)cc3)[C@]3(C(=O)Nc4ccc(C#CC5(O)CCCCCC5)cc43)[C@@H](C(=O)O)[C@H]12	0.685
C=CCC(OC(C)=O)[C@@H]1[C@@H](N(Cc2ccc(-c3cccc(C(F)(F)F)c3)o2)C(=O)c2ccc(-c3ccccc3)cc2)c2cc(OCCCO)ccc2N1C(=O)c1ccc2ccccc2c1 (stereo partly specified)	0.323
O=C1O[C@@H](c2ccccc2)[C@@H](c2ccccc2)N2[C@@H](c3ccc(OCCO)cc3)[C@]3(C(=O)Nc4ccc(C#CCCO)cc43)[C@@H](C(=O)O)[C@H]12	0.746
C=C(CCCC)/C(=C/C[C@H](OC(=O)c1ccncc1)c1ccc(OCCO)cc1)c1cnc2ccccc2c1	0.755
O=C1C[C@@](C(=O)NC2CC2)(c2ccc([N+](=O)[O-])cc2)[C@@H](c2ccc(CO)cc2)N1C1CCCCC1	0.512
CN1C(=O)C2C=CC(C(O)c3ccc(-c4ccccc4)s3)N(NC(=O)OC(C)(C)C)C2C1=O (stereo unspecified)	0.689
C=CCN1Cc2ccccc2[C@H]2OC(c3ccc(OCCCO)cc3)=N[C@@]2(CCS(=O)(=O)c2ccccc2)C1=O	0.614
CC1CC/C=C\[C@H]2OC34C=CCN(c5ccc6ccccc6c5)C(=O)[C@H]3N(C(C)CO)C(=O)[C@@H]4C2C(=O)O1 (stereo partly specified)	0.725
CO[C@H]1O[C@H](CO)[C@@H](OC(=O)Nc2ccccc2-c2ccccc2)[C@H](OC(=O)Nc2ccccc2)[C@H]1OC(=O)Nc1ccccc1	0.701
CCCc1cc2c(n1CCc1ccc(Cl)cc1)C(C)C1CN(C(=O)c3ccccc3)C(C)(C(=O)OC)C21 (stereo unspecified)	0.862
C=CCOC(=O)[C@@H]1[C@H]2C(=O)O[C@H](c3ccccc3)[C@H](c3ccccc3)N2[C@H](c2ccc(OCCOC(=O)[C@H]3C[C@H]4C(=O)N[C@@H](CCCCN(C)C)C(=O)N4[C@H]3c3ccc(O)cc3)cc2)[C@@]12C(=O)Nc1ccc(I)cc12	0.426
C=CCC(OC(C)=O)[C@@H]1[C@@H](N(Cc2cc3ccccc3o2)C(=O)Cc2ccc(OC)cc2)c2cc(OCCCO)ccc2N1C(=O)c1ccc2ccccc2n1 (stereo partly specified)	-0.0176
CC(C)=CCCC(C)=CC(O)C1C=CC2C(=O)NC(=O)C2N1Nc1ccc(Cl)cc1Cl (stereo unspecified)	0.596
CC(C)C(=C=CC[C@H](O)c1ccccc1OCCO)C[C@H](O)COCc1ccccc1	0.736
C=CCC(OC(C)=O)[C@@H]1[C@@H](N(Cc2cc3ccccc3o2)C(=O)c2cccc3ccccc23)c2cc(OCCCO)ccc2N1C(=O)c1ccc2ccccc2n1 (stereo partly specified)	0.112
COc1ccc([Si](C)(C)[C@@H]2[C@@H](CC(=O)N(CCO)Cc3ccccc3)O[C@]3(C(=O)N(Cc4ccc(I)cc4)c4ccccc43)[C@H]2C)cc1	0.414
